# measured_on: UniProt:P19327
# Sequence (P19327 whole entry): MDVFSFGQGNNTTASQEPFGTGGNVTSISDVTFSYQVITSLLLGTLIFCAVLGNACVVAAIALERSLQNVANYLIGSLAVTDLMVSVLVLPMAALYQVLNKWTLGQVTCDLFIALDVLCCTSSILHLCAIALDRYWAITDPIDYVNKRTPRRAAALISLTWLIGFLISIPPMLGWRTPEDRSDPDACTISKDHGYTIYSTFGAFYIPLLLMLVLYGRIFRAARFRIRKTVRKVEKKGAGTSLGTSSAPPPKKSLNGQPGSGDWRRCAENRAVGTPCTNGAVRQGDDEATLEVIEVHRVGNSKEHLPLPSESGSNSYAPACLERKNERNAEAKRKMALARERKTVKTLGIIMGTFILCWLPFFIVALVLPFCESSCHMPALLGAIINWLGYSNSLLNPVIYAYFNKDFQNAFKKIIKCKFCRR
# assay_details: Binding affinity against serotonin 5-hydroxytryptamine 1A receptor in rat hippocampus membrane using [3H]8-OH-DPAT as radioligand
# Type: cell membranes
property: IC50 (nM)

COc1ccccc1N1CCN(CCCNC(=O)C2CCCc3c(OC)cccc32)CC1 (stereo not drawn)
16
COc1cccc2c1CCCC2CCCN1CCN(c2ccccc2)CC1 (stereo not drawn)
0.5
COc1cccc2c1CCCC2C(=O)NCCN1CCN(c2ccccn2)CC1 (stereo not drawn)
173
COc1cccc2c1CCCC2C(=O)NCCN1CCN(c2ccccc2)CC1 (stereo not drawn)
416
COc1ccccc1N1CCN(CCNC(=O)C2CCCc3c(OC)cccc32)CC1 (stereo not drawn)
35

(A) COc1cccc2c1CCCC2CCCN1CCN(c2ccccn2)CC1 (stereo not drawn)
(B) COc1cccc2c1CCCC2C(=O)NCCCN1CCN(c2ccccc2)CC1 (stereo not drawn)
Ask: Exercise: compare A and B ; which one has the greater IC50? Return value: the label identifying the chosen record.
Reply: B
(B: 63 nM, A: 0.54 nM)
